# assayed_system: ABL2/ARG (Homo sapiens, UniProt P42684)
# Sequence (P42684 whole entry): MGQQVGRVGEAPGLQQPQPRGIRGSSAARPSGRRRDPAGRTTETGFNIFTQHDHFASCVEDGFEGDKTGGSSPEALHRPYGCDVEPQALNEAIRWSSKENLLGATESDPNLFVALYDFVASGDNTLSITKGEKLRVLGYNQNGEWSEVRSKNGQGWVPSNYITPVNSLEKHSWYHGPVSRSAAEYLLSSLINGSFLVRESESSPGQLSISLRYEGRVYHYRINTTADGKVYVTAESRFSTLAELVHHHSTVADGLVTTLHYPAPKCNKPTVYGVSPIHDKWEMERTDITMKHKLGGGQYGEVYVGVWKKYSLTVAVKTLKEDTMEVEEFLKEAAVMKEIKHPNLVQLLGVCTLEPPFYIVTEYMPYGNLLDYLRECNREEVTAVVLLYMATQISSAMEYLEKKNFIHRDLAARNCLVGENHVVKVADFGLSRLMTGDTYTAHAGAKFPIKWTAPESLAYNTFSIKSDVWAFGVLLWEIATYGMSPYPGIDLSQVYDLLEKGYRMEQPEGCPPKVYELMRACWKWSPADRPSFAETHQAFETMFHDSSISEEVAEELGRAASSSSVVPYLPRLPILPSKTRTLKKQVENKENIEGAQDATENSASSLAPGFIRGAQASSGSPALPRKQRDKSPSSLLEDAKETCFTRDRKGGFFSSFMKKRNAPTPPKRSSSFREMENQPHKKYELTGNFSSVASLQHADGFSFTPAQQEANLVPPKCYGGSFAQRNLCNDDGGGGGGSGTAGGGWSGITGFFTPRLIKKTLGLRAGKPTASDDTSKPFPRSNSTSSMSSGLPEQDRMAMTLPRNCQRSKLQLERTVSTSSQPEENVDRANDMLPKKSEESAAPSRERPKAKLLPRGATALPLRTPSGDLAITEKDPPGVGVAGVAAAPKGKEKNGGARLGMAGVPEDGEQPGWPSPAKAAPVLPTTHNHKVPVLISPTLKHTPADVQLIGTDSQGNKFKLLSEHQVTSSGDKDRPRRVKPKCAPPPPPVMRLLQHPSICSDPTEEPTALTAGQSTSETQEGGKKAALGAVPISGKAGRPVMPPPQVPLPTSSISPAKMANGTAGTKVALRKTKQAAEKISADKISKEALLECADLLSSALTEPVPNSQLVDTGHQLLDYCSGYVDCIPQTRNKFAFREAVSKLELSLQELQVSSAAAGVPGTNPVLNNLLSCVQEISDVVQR
# procedure_details: HotSpot kinase assay against ABL2/ARG
# test_context: HotSpot 33P assay, ATP 10 μM-30 μM
measured_property: IC50

compound | IC50
CCC(=O)N1CCN(C(=O)[C@H]2CCCN2c2nc3c(c(Nc4cc(C5CCCC5)[nH]n4)n2)CCC3)CC1 [143a] | 398 nM

// fetch IC50; item: CC(C)(C)c1cc(Nc2nc(N3CCC[C@@H]3C(=O)N3CCC(F)(F)CC3)nc3c2CCC3)n[nH]1 [142a] ; system: ABL2/ARG (Homo sapiens, UniProt P42684)
> 1000 nM

// fetch IC50; item: CC(C)c1cc(Nc2nc(N3CCC[C@H]3C(=O)N(C)c3nccs3)nc3c2CCC3)n[nH]1 [68b] ; system: ABL2/ARG (Homo sapiens, UniProt P42684)
41 nM

// fetch IC50; item: CCC(=O)N1CCN(C(=O)[C@@H]2CCCN2c2nc3c(c(Nc4cc(C5CCCC5)[nH]n4)n2)CCC3)CC1 [143b] ; system: ABL2/ARG (Homo sapiens, UniProt P42684)
> 1000 nM

// fetch IC50; item: CCN(C(=O)[C@@H]1CCCN1c1nc2c(c(Nc3cc(C(C)(C)C)[nH]n3)n1)CCC2)c1nccs1 [144b] ; system: ABL2/ARG (Homo sapiens, UniProt P42684)
> 1000 nM

// fetch IC50; item: CC(C)(C)c1cc(Nc2nc(N3CCC[C@H]3C(=O)N3CCC(F)(F)CC3)nc3c2CCC3)n[nH]1 [142b] ; system: ABL2/ARG (Homo sapiens, UniProt P42684)
> 1000 nM
